MEASUREMENT PROTOCOL: Drug concentration in Sprague-Dawley rat urine at 11 mg/kg, po after 12 hrs
Format: ADME, organism-based
Design: dose 11 mg/kg, route oral
TEST CONDITIONS: read-out: Drug uptake

# SMI, UNIT INFO, dose excreted at 12 h
records = [
    ("COc1ccc(OC(=O)N(CC(=O)O)Cc2ccc(OCCc3nc(-c4ccccc4)oc3C)cc2)cc1", "%", 0.51),
]

---

MEASUREMENT PROTOCOL: Drug concentration in bile duct-cannulated CD1 mouse bile at 40 mg/kg, po after 24 hrs
Type: ADME, organism-based
Design: dose 40 mg/kg, route oral
TEST CONDITIONS: read-out: Drug uptake
READOUT LABEL: dose excreted at 24 h (%)

# SMI, READOUT LABEL, DATA VALUE
data = [
    ("COc1ccc(OC(=O)N(CC(=O)O)Cc2ccc(OCCc3nc(-c4ccccc4)oc3C)cc2)cc1", "dose excreted at 24 h", 13.2),
]

---

MEASUREMENT PROTOCOL: Tmax in human at 10 mg, po after 72 hrs
Assay type: ADME, organism-based
TEST CONDITIONS: in vivo

# SMI, Tmax (h)
records = [
    ("COc1ccc(OC(=O)N(CC(=O)O)Cc2ccc(OCCc3nc(-c4ccccc4)oc3C)cc2)cc1", 1),
]

---

MEASURED ON: Peroxisome proliferator-activated receptor alpha (Homo sapiens) (UniProt Q07869)
Sequence (whole entry): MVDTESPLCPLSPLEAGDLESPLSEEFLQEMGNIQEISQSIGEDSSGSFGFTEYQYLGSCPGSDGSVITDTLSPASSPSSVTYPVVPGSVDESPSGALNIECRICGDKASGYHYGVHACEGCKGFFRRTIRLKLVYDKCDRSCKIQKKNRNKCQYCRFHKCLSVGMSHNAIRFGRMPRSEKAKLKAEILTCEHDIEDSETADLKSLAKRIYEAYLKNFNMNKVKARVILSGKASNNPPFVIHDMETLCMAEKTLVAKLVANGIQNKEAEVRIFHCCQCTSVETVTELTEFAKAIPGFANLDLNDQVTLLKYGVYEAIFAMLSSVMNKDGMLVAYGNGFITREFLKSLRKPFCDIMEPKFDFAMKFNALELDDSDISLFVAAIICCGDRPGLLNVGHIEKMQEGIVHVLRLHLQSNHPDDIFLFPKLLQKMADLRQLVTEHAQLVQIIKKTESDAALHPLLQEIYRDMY
MEASUREMENT PROTOCOL: Intrinsic activity at PPAR alpha in human HEK cells at 1 uM by transactivation assay
Type: cell-based
TEST CONDITIONS: HEK293
Criterion: Intrinsic activity strictly less than 20%. Met: TRUE. Not met: FALSE.

# SMI, CLASS LABEL
measured = [
    ("O=C(O)CN(Cc1ccc(OCCc2nc(-c3ccccc3)oc2CO)cc1)C(=O)Oc1ccc(O)cc1", "TRUE"),
    ("COc1ccc(OC(=O)N(CC(=O)O)Cc2ccc(OCCc3nc(-c4ccccc4)oc3CO)cc2)cc1", "FALSE"),
    ("COc1ccc(OC(=O)N(CC(=O)O)Cc2ccc(OCCc3nc(-c4ccc(O)cc4)oc3C)cc2)cc1", "FALSE"),
    ("Cc1oc(-c2ccccc2)nc1CCOc1ccc(CN(CC(=O)O)C(=O)Oc2ccc(O)cc2)cc1", "TRUE"),
    ("COc1ccc(OC(=O)N(CC(=O)O)Cc2ccc(OCCc3nc(-c4ccccc4)oc3C)cc2)cc1", "FALSE"),
]

---

MEASUREMENT PROTOCOL: Tmax in Beagle dog at 2 mg/kg, po after 12 hrs
Type: ADME, organism-based, Canis lupus familiaris
Set-up: dose 2 mg/kg, route oral
TEST CONDITIONS: in vivo
READOUT LABEL: Tmax (min)

# COMPOUND, READOUT LABEL, UNIT INFO, DATA VALUE
rows = [
    ("COc1ccc(OC(=O)N(CC(=O)O)Cc2ccc(OCCc3nc(-c4ccccc4)oc3C)cc2)cc1.Cl [MURAGLITAZAR CHLORIDE]", "Tmax", "min", 30),
]

---

MEASUREMENT PROTOCOL: Tmax in Sprague-Dawley rat at 10 mg/kg, po after 24 hrs
Assay type: ADME, organism-based
Design: dose 10 mg/kg, route oral
TEST CONDITIONS: in vivo
READOUT LABEL: Tmax (min)

# SMI, READOUT LABEL, DATA VALUE
data = [
    ("COc1ccc(OC(=O)N(CC(=O)O)Cc2ccc(OCCc3nc(-c4ccccc4)oc3C)cc2)cc1", "Tmax", 30),
]

---

MEASUREMENT PROTOCOL: Fecal excretion rate in orally dosed Beagle dog within 48 hrs
Assay type: ADME, organism-based, Canis lupus familiaris
TEST CONDITIONS: faeces, po, read-out: Activity

# SMI, UNIT INFO, dose excreted at 48 h
measured = [
    ("COc1ccc(OC(=O)N(CC(=O)O)Cc2ccc(OCCc3nc(-c4ccccc4)oc3C)cc2)cc1", "%", 95),
]

---

MEASURED ON: Peroxisome proliferator-activated receptor alpha (Homo sapiens, UniProt Q07869)
Sequence (Q07869 whole entry): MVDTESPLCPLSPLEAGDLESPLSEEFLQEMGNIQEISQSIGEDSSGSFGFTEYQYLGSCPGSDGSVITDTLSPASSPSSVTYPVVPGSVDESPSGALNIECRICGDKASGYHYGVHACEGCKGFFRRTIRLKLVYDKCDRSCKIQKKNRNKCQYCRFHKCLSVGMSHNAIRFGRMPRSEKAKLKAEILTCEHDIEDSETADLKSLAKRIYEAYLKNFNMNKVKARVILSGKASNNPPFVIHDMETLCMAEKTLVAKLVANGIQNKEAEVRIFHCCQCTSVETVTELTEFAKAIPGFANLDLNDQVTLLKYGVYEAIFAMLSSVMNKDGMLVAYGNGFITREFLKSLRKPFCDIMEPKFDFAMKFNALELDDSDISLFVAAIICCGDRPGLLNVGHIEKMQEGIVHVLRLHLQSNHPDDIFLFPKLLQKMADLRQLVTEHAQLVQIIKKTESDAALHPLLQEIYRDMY
MEASUREMENT PROTOCOL: Binding affinity at PPAR alpha receptor
pIC50: −log10 of the molar value.

# MOLECULE, COMPARISON SYMBOL, pIC50
measured = [
    ("COc1ccc(OC(=O)N(CC(=O)O)Cc2ccc(OCCC(=O)NC(=O)c3ccccc3)cc2)cc1", "<", 4.82),
    ("Cc1oc(-c2ccccc2)nc1CCOc1ccc(CN(CC(=O)O)C(=O)Oc2ccc(O)cc2)cc1", "=", 5.43),
    ("COc1ccc(OC(=O)N(CC(=O)O)Cc2ccc(OCCc3nc(-c4ccccc4)oc3CO)cc2)cc1", "=", 5.51),
    ("COc1ccc(OC(=O)N(CC(=O)O)Cc2ccc(OCCc3nc(-c4ccccc4)oc3C)cc2)cc1.Cl [MURAGLITAZAR CHLORIDE]", "=", 6.73),
]

---

MEASUREMENT PROTOCOL: Drug concentration in human urine at 10 mg/kg, po after 8 hrs
Assay type: ADME, organism-based
Parameters: dose 10 mg/kg, route oral
TEST CONDITIONS: read-out: Drug uptake
READOUT LABEL: dose excreted at 8 h (%)

# SMI, UNIT INFO, DATA VALUE
measured = [
    ("COc1ccc(OC(=O)N(CC(=O)O)Cc2ccc(OCCc3nc(-c4ccccc4)oc3C)cc2)cc1", "%", 1.3),
]

---

MEASUREMENT PROTOCOL: Half life in cynomolgus monkey at 1.9 mg/kg, po after 24 hrs
Type: ADME, organism-based, Macaca fascicularis
Set-up: dose 1.9 mg/kg, route oral
TEST CONDITIONS: in vivo

# SMI, half-life [h]
data = [
    ("COc1ccc(OC(=O)N(CC(=O)O)Cc2ccc(OCCc3nc(-c4ccccc4)oc3C)cc2)cc1", 23.5),
]

---

MEASUREMENT PROTOCOL: Half life in human at 10 mg, po after 72 hrs
Type: ADME, organism-based
TEST CONDITIONS: in vivo

# SMI, UNIT INFO, half-life
records = [
    ("COc1ccc(OC(=O)N(CC(=O)O)Cc2ccc(OCCc3nc(-c4ccccc4)oc3C)cc2)cc1", "h", 19.8),
]

---

MEASUREMENT PROTOCOL: Fecal excretion rate in orally dosed Sprague-Dawley rat within 48 hrs
Assay type: ADME, organism-based
TEST CONDITIONS: faeces, po, read-out: Activity

# COMPOUND, dose excreted at 48 h
rows = [
    ("COc1ccc(OC(=O)N(CC(=O)O)Cc2ccc(OCCc3nc(-c4ccccc4)oc3C)cc2)cc1 [MURAGLITAZAR]", "95%"),
]

---

Attribute: %max
MEASURED ON: Peroxisome proliferator-activated receptor alpha (Homo sapiens)
MEASUREMENT PROTOCOL: Agonist activity at PPAR alpha in human HEK cells by transactivation assay
Type: functional, cell-based
TEST CONDITIONS: HEK293
READOUT LABEL: %max (%)

# SMI, MEASURED ON, UNIT INFO, DATA VALUE
rows = [
    ("Cc1oc(-c2ccccc2)nc1CCOc1ccc(CN(CC(=O)O)C(=O)Oc2ccc(O)cc2)cc1", "Peroxisome proliferator-activated receptor alpha (Homo sapiens)", "%", 78),
    ("COc1ccc(OC(=O)N(CC(=O)O)Cc2ccc(OCCc3nc(-c4ccc(O)cc4)oc3C)cc2)cc1", "Peroxisome proliferator-activated receptor alpha (Homo sapiens)", "%", 93),
    ("COc1ccc(OC(=O)N(CC(=O)O)Cc2ccc(OCCc3nc(-c4ccccc4)oc3CO)cc2)cc1", "Peroxisome proliferator-activated receptor alpha (Homo sapiens)", "%", 88),
    ("O=C(O)CN(Cc1ccc(OCCc2nc(-c3ccccc3)oc2CO)cc1)C(=O)Oc1ccc(O)cc1", "Peroxisome proliferator-activated receptor alpha (Homo sapiens)", "%", 69),
]
